Property: kon; scope: individual binders
Molecular target: T1, Dimeric human CD48-mFc (human)
T1 construct: the whole entry is the construct; also called hCD48-mFc
T1 chain: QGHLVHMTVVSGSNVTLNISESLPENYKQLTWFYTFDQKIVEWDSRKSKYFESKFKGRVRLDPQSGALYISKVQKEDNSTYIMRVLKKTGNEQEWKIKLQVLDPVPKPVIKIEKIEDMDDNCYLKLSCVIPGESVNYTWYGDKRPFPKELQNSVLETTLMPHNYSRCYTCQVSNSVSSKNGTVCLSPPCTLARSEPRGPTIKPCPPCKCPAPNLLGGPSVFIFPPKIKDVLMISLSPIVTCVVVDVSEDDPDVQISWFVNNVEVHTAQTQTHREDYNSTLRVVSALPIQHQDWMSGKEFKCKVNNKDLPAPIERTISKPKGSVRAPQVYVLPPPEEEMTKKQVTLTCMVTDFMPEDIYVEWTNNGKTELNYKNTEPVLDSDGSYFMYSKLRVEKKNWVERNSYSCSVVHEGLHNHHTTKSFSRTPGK
Assay: SPR (Biacore), antibody captured by anti-Fc, CD48 in solution, 37 C
Expressed in M⁻¹ s⁻¹, but write only the number.

H4H1781P (antibody, human IgG4, V domains shown, Human IgG4 Fc (H4H)) VH: QVQLVESGGGVVQPGRSLRLSCAASGFTFSNYGMHWVRQAPGKGLEWVAVIWYDDSNKNYADSVKGRFTISRDNSKNTLYLQMNSLRVEDTAVYYCARDRWTYSHFFEYWGQGTLVTVSS VL: DIQMTQSPSSVSASVGDRVTITCRASQGISSWLAWYQQKPGKAPNLLIYAASSLQSGVPSRFGGSGSGTDFSLTISGLQPEDFATYYCQQANSFPRTFGQGTKVEIK; 812000

Okay, next one:
Measured kon of H4H1707N (antibody, V domains shown, Human IgG4 Fc (H4H)) VH: EGQLLESGGGLAQPGGSLRLSCAASGITFGRYAMSWVRQAPGKGLEWVSLISGSGGSTYHADSVKGRFTISRDNSKNTLYLQMNSLRAEDTAVYYCAIYNNYNWFDPWGQGTLVTVSS VL: EIVLTQSPGTLSLSPGERATLSCRASQSVSSNYLAWYQQKPGQAPRLLIYDASSRATDIPDRFSGSGSGTDFTLTISRLEPEDFAVYYCQQYGSSPRTFGQGTKVEIK : 981000

All figures here come from patent US20130230533A1.
